Tested on: SW480
experiment-notes: Inhibition of Wnt/beta-catenin signaling pathway in human SW480 whole cell lysate harboring APC mutation assessed as reduction in cyclin D1 protein expression at 5 uM after 18 hrs by Western blot analysis relative to control
Type: subcellular
property: inhibition (%)
One number for each entry, in %.

See these solved cases before continuing.
{"columns": ["compound", "inhibition [%]"],
 "data": [
  ["O=C(Nc1ccc([N+](=O)[O-])cc1Cl)c1cc(Cl)ccc1O [NICLOSAMIDE]", 45],
  ["Oc1ccc(Cl)cc1-c1nnc(-c2ccc(C(F)(F)F)cc2)[nH]1", 76],
  ["O=[N+]([O-])c1ccc(-c2nnc(-c3cc(Cl)ccc3O)[nH]2)cc1", 70]
]}

# next compound below
The observed inhibition for O=[N+]([O-])c1ccc(-c2nnc(-c3cc(Cl)ccc3O)[nH]2)c(Cl)c1 when tested with SW480 stands at 57

These entries and their values trace back to ChEMBL document CHEMBL4371061.
